B1: MCOLN1 (parent)
chain: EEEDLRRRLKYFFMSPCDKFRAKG

# Variants of: B1
# ASSAY: protein stability index of a GFP-peptide fusion (GPS, HEK-293T) (PSI 1-6); higher = more stable;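 further: lentivirally expressed fusions sorted by FACS into six bins by GFP to DsRed ratio, PSI derived from sequencing read proportions per bin multiplied by bin number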
# EXPERIMENTAL SETUP: c terminus: a fixed tail appended
protein stability index of 2 or higher: rule met. Under 2: rule not met.

| CHANGES | ASSIGNED CLASS |
| --- | --- |
| K19W | rule not met |
| D18N | rule not met |
| R8N | rule met |
| K23W | rule not met |
| D4T | rule met |
| F12T | rule met |
| K23A | rule met |
| F13N | rule met |
| L9Q | rule met |
| R6G | rule met |
| E1H | rule met |
| A22Q | rule met |
| C17W | rule met |
| S15D | rule met |
| M14S | rule met |
| D18G | rule met |
| R7E | rule met |
| P16T | rule met |
| R6V | rule met |
| L5K | rule met |

Where do these numbers come from? They come from the supplement of paper PMC10567573.
